# System: Plutella xylostella
# Test method notes: Plutella xylostella (diamond back moth) feeding/contact activity
# Type: in vivo
# Measurement conditions: 120 h, application rate 200 ppm, L2 larvae on treated artificial diet, assessed 5 days after infestation, read-out: mortality
Reported endpoint: mortality at 200 ppm

Line notation | Endpoint value
COCN(C(=O)c1cc(-c2cnn(-c3c(OC(F)F)c(C(F)(F)C(F)(F)F)nn3C)c2)ccc1C(F)(F)F)C1(C#N)CC1 | ≥ 80%
CN(C(=O)c1cc(-c2cnn(-c3c(OC(F)F)c(C(F)(F)C(F)(F)F)nn3C)c2)ccc1C(F)(F)F)C1(C#N)CC1 | ≥ 80%
Cn1nc(C(F)(F)C(F)(F)F)c(OC(F)F)c1-n1cc(-c2ccc(C(F)(F)F)c(C(=O)N(CC#N)C3(C#N)CC3)c2)cn1 | ≥ 80%
Cn1nc(C(F)(F)C(F)(F)F)c(OC(F)F)c1-n1cc(-c2ccc(C(F)(F)F)c(C(=O)N(CC3CC3)C3(C#N)CC3)c2)cn1 | ≥ 80%
Cn1nc(C(F)(F)C(F)(F)F)c(OC(F)F)c1-n1cc(-c2ccc(C(F)(F)F)c(C(=O)NC3(C#N)CC3)c2)cn1 | ≥ 80%
CC(=O)N(C(=O)c1cc(-c2cnn(-c3c(OC(F)F)c(C(F)(F)C(F)(F)F)nn3C)c2)ccc1C(F)(F)F)C1(C#N)CC1 | ≥ 80%
Cn1nc(C(F)(F)C(F)(F)F)c(OC(F)F)c1-n1cc(-c2ccc(C(F)(F)F)c(C(=O)NC3CC3)c2)cn1 | ≥ 80%
C#CCN(C(=O)c1cc(-c2cnn(-c3c(OC(F)F)c(C(F)(F)C(F)(F)F)nn3C)c2)ccc1C(F)(F)F)C1(C#N)CC1 | ≥ 80%
CCN(C(=O)c1cc(-c2cnn(-c3c(OC(F)F)c(C(F)(F)C(F)(F)F)nn3C)c2)ccc1C(F)(F)F)C1(C#N)CC1 | ≥ 80%

Entry source: patent US20200288713A1
